- System: MCF7
- assay details: Antiproliferative activity against human MCF7 cells by MTT assay
- Assay type: functional, cell-based
pIC50: −log10 of the molar value.
pIC50 for assorted molecules
endpoint label: pIC50

{"columns": ["molecule", "endpoint label", "measured value"],
 "data": [
  ["COc1ccc([C@@H]2C(c3cc4ccccc4n3C)C(=O)N2c2cc(OC)c(OC)c(OC)c2)cc1 (stereo partly specified)", "pIC50", 5.18],
  ["COc1ccc([C@@H]2[C@@H](c3ccsc3)C(=O)N2c2cc(OC)c(OC)c(OC)c2)cc1O", "pIC50", 8.00],
  ["COc1ccc([C@@H]2[C@@H](C(O)c3ccc(C)s3)C(=O)N2c2cc(OC)c(OC)c(OC)c2)cc1 (stereo partly specified)", "pIC50", 5.90],
  ["COc1ccc([C@@H]2/C(=C/c3cccs3)C(=O)N2c2cc(OC)c(OC)c(OC)c2)cc1", "pIC50", 5.39],
  ["COc1ccc([C@@H]2[C@@H](c3cccs3)C(=O)N2c2cc(OC)c(OC)c(OC)c2)cc1N", "pIC50", 7.38],
  ["COc1ccc([C@@H]2[C@@H](C(=O)c3ccsc3)C(=O)N2c2cc(OC)c(OC)c(OC)c2)cc1", "pIC50", 6.33],
  ["COc1ccc([C@@H]2C(c3cccs3)C(=O)N2c2cc(OC)c(OC)c(OC)c2)cc1 (mixture of isomers)", "pIC50", 7.19],
  ["COc1ccc(C2/C(=C/c3ccc(C)s3)C(=O)N2c2cc(OC)c(OC)c(OC)c2)cc1 (stereo unspecified)", "pIC50", 6.24],
  ["COc1ccc([C@H]2N(c3cc(OC)c(OC)c(OC)c3)C(=O)C2(C)c2ccccc2)cc1 (mixture of isomers)", "pIC50", 4.36],
  ["COc1ccc([C@@H]2[C@@H](C(=O)c3cccs3)C(=O)N2c2cc(OC)c(OC)c(OC)c2)cc1", "pIC50", 6.02],
  ["COc1ccc([C@@H]2C(c3cccs3)C(=O)N2c2cc(OC)c(OC)c(OC)c2)cc1[N+](=O)[O-] (mixture of isomers)", "pIC50", 6.43],
  ["COc1ccc([C@@H]2[C@@H](C(O)c3ccoc3)C(=O)N2c2cc(OC)c(OC)c(OC)c2)cc1 (stereo partly specified)", "pIC50", 5.96],
  ["COc1ccc([C@@H]2[C@@H](C(O)c3cccs3)C(=O)N2c2cc(OC)c(OC)c(OC)c2)cc1 (stereo partly specified)", "pIC50", 5.92],
  ["COc1cc(N2C(=O)[C@H](c3cccs3)[C@H]2c2cccs2)cc(OC)c1OC (mixture of isomers)", "pIC50", 6.04],
  ["COc1ccc([C@@H]2C(c3cc4ccccc4s3)C(=O)N2c2cc(OC)c(OC)c(OC)c2)cc1 (mixture of isomers)", "pIC50", 6.07],
  ["COc1ccc([C@H]2N(c3cc(OC)c(OC)c(OC)c3)C(=O)C2(c2ccccc2)c2ccccc2)cc1 (mixture of isomers)", "pIC50", 4.36]
]}
